System: GALAP Galium
Experiment: Preemergence herbicidal evaluation, GALAP
Assay type: in vivo, Galium aparine
Conditions: preemergence, rate 0.125 kg/ha
VALUE KIND: GALAP herbicidal rating
Number only, no unit.

Problem: Value wanted: GALAP herbicidal rating (GALAP Galium) of entry COC(=O)COc1ccc(C)cc1-n1nnc2cc(F)c(-n3c(=O)cc(C(F)(F)F)n(C)c3=O)cc21
Solution: 7.0

Problem: Query GALAP herbicidal rating on GALAP Galium for Cc1cc(O)ccc1-n1nnc2cc(F)c(-n3c(=O)cc(C(F)(F)F)n(C)c3=O)cc21
Solution: 0.0

Problem: Which GALAP herbicidal rating is reported with GALAP Galium for this entry: COC(=O)COc1ccccc1-n1nnc2cc(F)c(-n3c(=O)cc(C(F)(F)F)n(C)c3=O)cc21 ?
Solution: 5.0

Problem: Hi! What's the reported GALAP herbicidal rating for CCc1ccccc1-n1nnc2cc(F)c(-n3c(=O)cc(C(F)(F)F)n(C)c3=O)cc21 on GALAP Galium?
Solution: 0.0

Data origin, for the record: patent US20020111274A1
